Each record here notes measured IC50.
molecular target: Sodium/glucose cotransporter 2 (Homo sapiens); test: Inhibition Assay: For sodium-dependent glucose transport assay, cells expressing hSGLT2 were seeded into a 96-well culture plate at a density of 5x10^4 cells/well in RPMI medium 1640 containing 10% fetal bovine serum. The cells were used 1 day after plating. They were incubated in pretreatment buffer (10 mM HEPES, 5 mM Tris, 140 mM choline chloride, 2 mM KCl, 1 mM CaCl2, and 1 mM MgCl2, pH 7.4) at 37 C. for 10 min. They were then incubated in uptake buffer (10 mM HEPES, 5 mM Tris, 140 mM NaCl, 2 mM KCl, 1 mM CaCl2, 1 mM MgCl2, and 1 mM 14C-nonlabeled AMG pH 7.4) containing 14C-labeled AMG (8 uM) and the inventive compound or dimethyl sulfoxide (DMSO) vehicle at 37 C. for 2 h. Cells were washed twice with washing buffer (pretreatment buffer containing 10 mM AMG at room temperature) and then the radioactivity was measured using a liquid scintillation counter. IC50 was determined by nonlinear regression analysis using GraphPad PRISM [Katsuno, K. et al. J. Pharmacol. Exp. Ther. 2007, 320, 323-330].
Sequence (P31639 whole entry): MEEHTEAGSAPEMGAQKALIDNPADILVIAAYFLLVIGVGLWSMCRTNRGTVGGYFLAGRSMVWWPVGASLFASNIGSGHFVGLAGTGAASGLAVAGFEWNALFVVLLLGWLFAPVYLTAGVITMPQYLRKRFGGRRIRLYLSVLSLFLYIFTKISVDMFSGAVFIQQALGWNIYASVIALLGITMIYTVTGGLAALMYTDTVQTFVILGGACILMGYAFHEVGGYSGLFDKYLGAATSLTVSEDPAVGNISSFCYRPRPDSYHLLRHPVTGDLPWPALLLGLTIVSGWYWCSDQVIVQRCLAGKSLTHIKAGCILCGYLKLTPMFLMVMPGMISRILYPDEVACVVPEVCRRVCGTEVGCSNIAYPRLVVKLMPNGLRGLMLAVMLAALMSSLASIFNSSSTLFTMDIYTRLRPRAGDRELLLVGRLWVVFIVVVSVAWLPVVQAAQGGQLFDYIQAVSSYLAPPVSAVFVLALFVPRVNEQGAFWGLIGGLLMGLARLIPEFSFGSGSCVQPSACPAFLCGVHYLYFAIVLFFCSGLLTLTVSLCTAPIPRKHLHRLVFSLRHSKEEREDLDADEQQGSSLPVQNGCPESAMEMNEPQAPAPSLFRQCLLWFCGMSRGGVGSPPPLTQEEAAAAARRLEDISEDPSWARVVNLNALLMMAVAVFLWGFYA
observationType: IC50 (nM)

>  <entrySmiles>
CCOc1ccc(Cc2cc([C@@H]3O[C@H](CO)[C@@H](O)[C@H](O)[C@H]3O)c3c(c2Cl)NCCO3)cc1

>  <experimentalValue>
2.42

$$$$
>  <entrySmiles>
CCOc1ccc(Cc2cc([C@@H]3O[C@H](CO)[C@@H](O)[C@H](O)[C@H]3O)c3c(c2C2CC2)OCC3)cc1

>  <experimentalValue>
13.8

$$$$
>  <entrySmiles>
OC[C@H]1O[C@@H](c2cc(Cc3ccc(N4CCC4)cc3)c(Cl)c3c2CCO3)[C@H](O)[C@@H](O)[C@@H]1O

>  <experimentalValue>
3.49

$$$$
>  <entrySmiles>
OC[C@H]1O[C@@H](c2cc(Cc3ccc(N4CCC4)cc3)c(Cl)c3c2CCC3)[C@H](O)[C@@H](O)[C@@H]1O

>  <experimentalValue>
1.75

$$$$
>  <entrySmiles>
CCOc1ccc(Cc2cc([C@@H]3O[C@H](CO)[C@@H](O)[C@H](O)[C@H]3O)c3c(c2Cl)OCO3)cc1

>  <experimentalValue>
1.08

$$$$
